B1: Azoarcus group I ribozyme (parent)
chain: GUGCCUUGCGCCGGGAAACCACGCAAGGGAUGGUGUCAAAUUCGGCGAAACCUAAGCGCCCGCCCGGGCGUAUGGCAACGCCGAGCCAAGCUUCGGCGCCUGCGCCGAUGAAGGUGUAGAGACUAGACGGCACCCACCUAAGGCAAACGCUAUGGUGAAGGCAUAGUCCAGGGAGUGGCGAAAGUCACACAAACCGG

Variants of: B1
assayExplanation: reverse-splicing fitness (ratio to wild type); higher = more active; in vitro selection; Mg2+ level not given
Listing of entries alongside the reported reverse-splicing fitness.

[
  {
    "mutantLabel": "A111G A145U C169A U176G",
    "reverse-splicing fitness": 0.00483
  },
  {
    "mutantLabel": "A145G C150G C169U U176C",
    "reverse-splicing fitness": 0.0454
  },
  {
    "mutantLabel": "A111C A120G A145C C150U U176A",
    "reverse-splicing fitness": 0.0163
  },
  {
    "mutantLabel": "C82G A111U A120U A145G C150A C169G U176C",
    "reverse-splicing fitness": 0.00577
  },
  {
    "mutantLabel": "A111G A120U C150G C169A U176C",
    "reverse-splicing fitness": 0.00366
  },
  {
    "mutantLabel": "C82G A111C A120G C150G C169G",
    "reverse-splicing fitness": 0.00781
  },
  {
    "mutantLabel": "C82U A111U C169U U176G",
    "reverse-splicing fitness": 0.00559
  },
  {
    "mutantLabel": "C82U A120G A145C C150A C169G U176A",
    "reverse-splicing fitness": 0.0215
  },
  {
    "mutantLabel": "A111G A120U A145C C150A U176C",
    "reverse-splicing fitness": 0.00924
  },
  {
    "mutantLabel": "C82U A120G A145C U176A",
    "reverse-splicing fitness": 0.0109
  },
  {
    "mutantLabel": "C82G A111G A120C A145U C150G C169A U176G",
    "reverse-splicing fitness": 0.00589
  },
  {
    "mutantLabel": "C82A A120G C150G C169U",
    "reverse-splicing fitness": 0.0095
  },
  {
    "mutantLabel": "C82U A111C A120U A145C C150U U176G",
    "reverse-splicing fitness": 0.0029
  },
  {
    "mutantLabel": "C82A A111U A120U C150U C169U U176A",
    "reverse-splicing fitness": 0.00662
  },
  {
    "mutantLabel": "C82U A111C A120C A145C C150U U176C",
    "reverse-splicing fitness": 0.0102
  },
  {
    "mutantLabel": "A111G A120U A145G C150U U176G",
    "reverse-splicing fitness": 0.0427
  },
  {
    "mutantLabel": "C82A A120G C150U C169A U176A",
    "reverse-splicing fitness": 0.0169
  },
  {
    "mutantLabel": "C82U A111C A120U C150A C169U",
    "reverse-splicing fitness": 0.00491
  },
  {
    "mutantLabel": "A111U A120G A145G C150A C169A",
    "reverse-splicing fitness": 0.0192
  },
  {
    "mutantLabel": "A111G U176G",
    "reverse-splicing fitness": 0.354
  },
  {
    "mutantLabel": "C82A A111U A120C A145U C150A C169U U176A",
    "reverse-splicing fitness": 0.0174
  },
  {
    "mutantLabel": "A111C A120G A145C C150U U176G",
    "reverse-splicing fitness": 0.00427
  },
  {
    "mutantLabel": "C82G A111C A120C C150U C169G U176C",
    "reverse-splicing fitness": 0.0171
  },
  {
    "mutantLabel": "C82U A111U A120C C150U C169G",
    "reverse-splicing fitness": 0.00829
  },
  {
    "mutantLabel": "C82A A111U A120G A145G C150A U176G",
    "reverse-splicing fitness": 0.00816
  },
  {
    "mutantLabel": "C82A A111G A120C C150A U176A",
    "reverse-splicing fitness": 0.0133
  },
  {
    "mutantLabel": "C82A A145U C150G U176G",
    "reverse-splicing fitness": 0.0081
  },
  {
    "mutantLabel": "A111G A120U A145U C169A U176C",
    "reverse-splicing fitness": 0.00348
  },
  {
    "mutantLabel": "A120C A145G C150G C169A",
    "reverse-splicing fitness": 0.0119
  },
  {
    "mutantLabel": "C82A A111C A120C A145C C169A",
    "reverse-splicing fitness": 0.00691
  },
  {
    "mutantLabel": "C82U A111U A120G A145G C150A C169U U176G",
    "reverse-splicing fitness": 0.00536
  },
  {
    "mutantLabel": "A111C A120U A145U C150G",
    "reverse-splicing fitness": 0.0737
  },
  {
    "mutantLabel": "C82U A111U A120C A145G C169U U176C",
    "reverse-splicing fitness": 0.0162
  },
  {
    "mutantLabel": "C82G A111G C150A U176G",
    "reverse-splicing fitness": 0.0174
  },
  {
    "mutantLabel": "A120U A145C C169U U176A",
    "reverse-splicing fitness": 0.0854
  },
  {
    "mutantLabel": "C82A A120C A145G C150U",
    "reverse-splicing fitness": 0.107
  },
  {
    "mutantLabel": "C82U A120U A145G C169U U176G",
    "reverse-splicing fitness": 0.00155
  },
  {
    "mutantLabel": "A111C A120U A145C C150U C169G U176G",
    "reverse-splicing fitness": 0.00229
  },
  {
    "mutantLabel": "C82G A111C A120U A145G C150A C169U U176C",
    "reverse-splicing fitness": 0.00449
  },
  {
    "mutantLabel": "C82A A120U A145C C150U C169G U176C",
    "reverse-splicing fitness": 0.00201
  },
  {
    "mutantLabel": "A111G A145U C150A C169U U176A",
    "reverse-splicing fitness": 0.0162
  },
  {
    "mutantLabel": "C82A A111C A120C A145G C150G",
    "reverse-splicing fitness": 0.00852
  },
  {
    "mutantLabel": "C82U A111C A120C A145G C150A C169G U176C",
    "reverse-splicing fitness": 0.0245
  },
  {
    "mutantLabel": "C82U A111G A120U A145G C150A C169G U176A",
    "reverse-splicing fitness": 0.0124
  },
  {
    "mutantLabel": "C82G A111G A120C A145U C169G U176C",
    "reverse-splicing fitness": 0.0163
  },
  {
    "mutantLabel": "C82A A145C C150G U176C",
    "reverse-splicing fitness": 0.0535
  }
]
